test-protocol: Phase I study CXR1002-001: plasma pharmacokinetics (LC-MS/MS)
Assay type: in vivo, human
protocol-conditions: human, plasma, oral, 1200 mg, Patient 034, 1200 mg, person, plasma, 170 hr; read-out: Concentration
experimental-readout: concentration at 170 hr (µM)
Give the quantity in µM, number only.

Prompt: GET /values?readout=concentration at 170 hr&item= O=C(O)C(F)(F)C(F)(F)C(F)(F)C(F)(F)C(F)(F)C(F)(F)C(F)(F)F [CXR1002]
Response: 893

* * *

test-protocol: Phase I study CXR1002-001: plasma pharmacokinetics (LC-MS/MS)
Assay type: in vivo, human
protocol-conditions: human, plasma, oral, 600 mg, Patient 024, 600 mg, person, plasma, 508 hr; read-out: Concentration
experimental-readout: concentration at 508 h (µM)
Please give a number only; it is taken to be in µM.

Prompt: Value lookup for concentration at 508 h; key = O=C(O)C(F)(F)C(F)(F)C(F)(F)C(F)(F)C(F)(F)C(F)(F)C(F)(F)F
Response: 630
